Ref: patent US20240207427A1

Listing: pIC50 of selected molecules
# Test system: anaplastic large cell lymphoma cells (Karpas299)
# procedureDetails: In vitro potency (CellTiter-Glo, 96 h), Karpas299
# Type: cell-based
# conditions: Homo sapiens, KARPAS-299, 96 h, read-out: IC50 (nmol/L) Karpas299, CPT free drugs, Table 24; CellTiter-Glo after 96 h exposure
Remember the convention: pIC50 equals -log10 of concentration in molar.

Reported pIC50 of CC[C@@]1(O)C(=O)OCc2c1cc1n(c2=O)Cc2c-1nc1cc(F)c(C)c(C)c1c2CN [Compound 2s] : 8.70

Reported pIC50 of CC[C@@]1(O)C(=O)OCc2c1cc1n(c2=O)Cc2c-1nc1cc(F)c(C)c(Cl)c1c2CN [Compound 2y] : 8.70

Reported pIC50 of CC[C@@]1(O)C(=O)OCc2c1cc1n(c2=O)Cc2c-1nc1cc3c(cc1c2CN)CCO3 [Compound 2n] : 9.00

Reported pIC50 of CC[C@@]1(O)C(=O)OCc2c1cc1n(c2=O)Cc2c-1nc1cc(F)c(C)c(F)c1c2CN [Compound 2j] : 8.70

====

# Tested on: anaplastic large cell lymphoma cells (DEL)
# procedureDetails: In vitro potency (CellTiter-Glo, 96 h), DEL
# Assay type: cell-based
# conditions: read-out: DEL IC50, Table 29, CPT free drugs, anaplastic large cell lymphoma cells DEL, CellTiter-Glo
Listing: pIC50 of selected compounds
Remember the convention: pIC50 equals -log10 of concentration in molar.

Consider the following illustrative entries.
CC[C@@]1(O)C(=O)OCc2c1cc1n(c2=O)Cc2c-1nc1cc3c(cc1c2CNC[C@H](O)CO)OCO3    8.30
CC[C@@]1(O)C(=O)OCc2c1cc1n(c2=O)Cc2c-1nc1cc3c(cc1c2CNCCCN1CCN(C)CC1)OCO3    8.30
CC[C@@]1(O)C(=O)OCc2c1cc1n(c2=O)Cc2c-1nc1cc3c(cc1c2CNC1CCN(C)CC1)OCO3    8.70

Reported pIC50 of CC[C@@]1(O)C(=O)OCc2c1cc1n(c2=O)Cc2c-1nc1cc3c(cc1c2CNC[C@H](O)CN1CCCCC1)OCO3 : 7.77

Reported pIC50 of CC[C@@]1(O)C(=O)OCc2c1cc1n(c2=O)Cc2c-1nc1cc3c(cc1c2CN1CCN(CCN)CC1)OCO3 : 8.52

Reported pIC50 of CC[C@@]1(O)C(=O)OCc2c1cc1n(c2=O)Cc2c-1nc1cc3c(cc1c2CNC[C@@H](O)CN1CCCCC1)OCO3 : 7.77

Reported pIC50 of CC[C@@]1(O)C(=O)OCc2c1cc1n(c2=O)Cc2c-1nc1cc3c(cc1c2CN1CCC(N)CC1)OCO3 : 7.85

====

# System: Hodgkin's lymphoma cells (L540cy)
# procedureDetails: In vitro potency (CellTiter-Glo, 96 h), L540cy
# Format: cell-based
# conditions: read-out: L540cy IC50, Table 29, CPT free drugs, Hodgkin's lymphoma cells L540cy, CellTiter-Glo
measure: IC50 (nM)
The figure you give is taken to be in nM; do not add the unit.

Consider the following illustrative entries.
CC[C@@]1(O)C(=O)OCc2c1cc1n(c2=O)Cc2c-1nc1cc3c(cc1c2CNC[C@H](O)CO)OCO3    23
CC[C@@]1(O)C(=O)OCc2c1cc1n(c2=O)Cc2c-1nc1cc3c(cc1c2CN1CCN(CCN)CC1)OCO3    14
CC[C@@]1(O)C(=O)OCc2c1cc1n(c2=O)Cc2c-1nc1cc3c(cc1c2CNCC(O)CN1CCOCC1)OCO3 (stereo partly shown)    48

Now look at this entry.
Reported IC50 of CC[C@@]1(O)C(=O)OCc2c1cc1n(c2=O)Cc2c-1nc1cc3c(cc1c2CNC1CCN(C)CC1)OCO3 : 6

====

# Test system: renal carcinoma cells (786-O)
# procedureDetails: In vitro potency (CellTiter-Glo, 96 h), 786-O
# Assay type: cell-based
# conditions: Homo sapiens, 786-0, 96 h, read-out: 786-O IC50, camptothecin free drug, 96 h
Listing: log10(IC50) of selected compounds
Recall that a logarithmic scale is used here: each number is log10 of IC50 in nM.

Consider the following illustrative entries.
CC[C@@]1(O)C(=O)OCc2c1cc1n(c2=O)Cc2c-1nc1cc3c(cc1c2CNCC(O)CO)OCO3 (stereo partly shown) [Compound 7x]    1.94
CC[C@@]1(O)C(=O)OCc2c1cc1n(c2=O)Cc2c-1nc1cc3c(cc1c2CNCCS(N)(=O)=O)OCO3 [Compound 7d]    1.57
CC[C@@]1(O)C(=O)OCc2c1cc1n(c2=O)Cc2c-1nc1cc3c(cc1c2CNCC(O)CN1CCCCC1)OCO3 (stereo partly shown) [Compound 7g]    1.52

Reported log10(IC50) of CC[C@@]1(O)C(=O)OCc2c1cc1n(c2=O)Cc2c-1nc1cc3c(cc1c2CNCCCN)OCO3 [Compound 7v] : 2.24

Reported log10(IC50) of CC[C@@]1(O)C(=O)OCc2c1cc1n(c2=O)Cc2c-1nc1cc3c(cc1c2CNCCCO)OCO3 [Compound 7o] : 1.72

Reported log10(IC50) of CC[C@@]1(O)C(=O)OCc2c1cc1n(c2=O)Cc2c-1nc1cc3c(cc1c2CNCCN1CCN(C)CC1)OCO3 [Compound 7b] : 2.21

====

# System: renal carcinoma cells (786-O)
# procedureDetails: In vitro potency (CellTiter-Glo, 96 h), 786-O
# Type: cell-based
# conditions: Homo sapiens, 786-0, 96 h, read-out: 786-O IC50, Table 29; CPT free drugs; renal carcinoma cells 786-O; 96 h, CellTiter-Glo
Listing: IC50 of selected compounds
The figure you give is taken to be in nM; do not add the unit.

Consider the following illustrative entries.
CC[C@@]1(O)C(=O)OCc2c1cc1n(c2=O)Cc2c-1nc1cc3c(cc1c2CN1CCN(CCN)CC1)OCO3 [Compound 8c]    27
CC[C@@]1(O)C(=O)OCc2c1cc1n(c2=O)Cc2c-1nc1cc3c(cc1c2CNC1CCNCC1)OCO3 [Compound 8e]    104
CC[C@@]1(O)C(=O)OCc2c1cc1n(c2=O)Cc2c-1nc1cc3c(cc1c2CNC[C@H](O)CN1CCCCC1)OCO3 [Compound 7aa]    131

Now look at this entry.
Reported IC50 of CC[C@@]1(O)C(=O)OCc2c1cc1n(c2=O)Cc2c-1nc1cc3c(cc1c2CNC1CCN(C)CC1)OCO3 [Compound 7w] : 15

====

# System: B-lymphocyte cancer cells (SU-DHL4)
# procedureDetails: In vitro potency (CellTiter-Glo, 96 h), SU-DHL-4
# Format: cell-based
# conditions: Homo sapiens, SU-DHL-4, 96 h, read-out: SU-DHL-4 IC50, Table 28; CPT free drugs; B-lymphocyte cancer cells SU-DHL4; 96 h, CellTiter-Glo
Listing: IC50 of selected compounds
The figure you give is taken to be in nM; do not add the unit.

Consider the following illustrative entries.
CC[C@@]1(O)C(=O)OCc2c1cc1n(c2=O)Cc2c-1nc1cc3c(cc1c2CNC(=O)CN)CCO3 [Compound 13]    18
CC[C@@]1(O)C(=O)OCc2c1cc1n(c2=O)Cc2c-1nc1cc3c(cc1c2CNC(C)=O)CCO3 [Compound 12]    1
CC[C@@]1(O)C(=O)OCc2c1cc1n(c2=O)Cc2c-1nc1cc3c(cc1c2CN)CCO3 [Compound 2n]    1

Now look at this entry.
Reported IC50 of CC[C@@]1(O)C(=O)OCc2c1cc1n(c2=O)Cc2c-1nc1cc(F)c(C)c(Cl)c1c2CNC(C)=O [Compound 12a] : 0.4

====

# Test system: acute myeloid leukemia cells (MOLM-13)
# procedureDetails: In vitro potency (CellTiter-Glo, 96 h), MOLM-13
# Type: cell-based
# conditions: Homo sapiens, MOLM-13, 96 h, read-out: MOLM-13 IC50, camptothecin free drug, 96 h
measure: IC50 (nM)
The figure you give is taken to be in nM; do not add the unit.

CC[C@@]1(O)C(=O)OCc2c1cc1n(c2=O)Cc2c-1nc1cc3c(cc1c2CN(C)C)OCO3 [Compound 7ae]    165

Reported IC50 of CC[C@@]1(O)C(=O)OCc2c1cc1n(c2=O)Cc2c-1nc1cc3c(cc1c2CNC1CCOCC1)OCO3 [Compound 7k] : 34

Reported IC50 of CC[C@@]1(O)C(=O)OCc2c1cc1n(c2=O)Cc2c-1nc1cc3c(cc1c2CNC[C@@H](O)CO)OCO3 [Compound 7u] : 456

Reported IC50 of CC[C@@]1(O)C(=O)OCc2c1cc1n(c2=O)Cc2c-1nc1cc3c(cc1c2CNCCS(N)(=O)=O)OCO3 [Compound 7d] : 61

Reported IC50 of CC[C@@]1(O)C(=O)OCc2c1cc1n(c2=O)Cc2c-1nc1cc3c(cc1c2CNCCCS(C)(=O)=O)OCO3 [Compound 7c] : 4
